PROPERTY MEASURED: Ki (nM)
Field format: number, assumed nM, no unit text.

-- ask Query for MT2 (Homo sapiens): what Ki does the record show for CCC(=O)NCCc1c2n(c3ccc(OC)cc13)Cc1ccccc1-2 ?
-- reply 0.17

---

test system: Frings audiogenic seizure susceptible mice; assay: Audiogenic seizure susceptibility of Frings mice; type: in vivo; conditions: Table 6, TD50/ED50
Tick True if P.I. is 4 or greater. Tick False if P.I. is less than 4.

-- ask Test whether the molecule CCC(=O)NCCc1c2n(c3ccc(OC)cc13)Cc1ccccc1-2 records P.I. of 4 or higher.
-- reply True

-- ask Test whether the molecule NC(=O)OCC(COC(N)=O)c1ccccc1 [Felbatol ®, reference compound] records P.I. of 4 or higher.
-- reply True

-- ask Test whether the molecule O=C1NC(=O)C(c2ccccc2)(c2ccccc2)N1 [Dilantin ®, reference compound] records P.I. of 4 or higher.
-- reply True

-- ask Test whether the molecule CCC1(C)CC(=O)NC1=O (stereo not shown) [Zarontin ®, reference compound] records P.I. of 4 or higher.
-- reply False

-- ask Test whether the molecule CCCC(CCC)C(=O)O [Depakote ®, reference compound] records P.I. of 4 or higher.
-- reply False

-- ask Test whether the molecule O=C1CN=C(c2ccccc2Cl)c2cc([N+](=O)[O-])ccc2N1 [Klonipin ®, reference compound] records P.I. of 4 or higher.
-- reply False
